Here, each record is paired with measured MIC data.
# Test system: Staphylococcus aureus
# Method summary: Antibacterial activity against gentamicin-resistant Staphylococcus aureus ATCC 33592 after 24 hrs by spectrophotometric analysis
# Format: functional, organism-based
# Conditions used: Staphylococcus aureus, ATCC 33592, 24 h
Report the value in µg/mL with no unit label.

INSERT INTO measurements (molecule, numeric_result) VALUES
  ('CCn1cc(C(=O)O)c(=O)c2cc(F)c(N3CCN(C(c4ccccc4)c4nnnn4C4CCCCC4)CC3)cc21 (centres undefined)', 0.78),
  ('CC(C)(C)n1nnnc1C(c1ccco1)N1CCN(c2cc3c(cc2F)c(=O)c(C(=O)O)cn3Cc2ccc(C(F)(F)F)cc2)CC1 (centres undefined)', 50);

The measured MIC associated with CCn1cc(C(=O)O)c(=O)c2cc(F)c(N3CCN(C(c4ccc(OC)c5ccccc45)c4nnnn4C4CCCCC4)CC3)cc21 (centres undefined) reads 4.7
